tgt: GSK3B (human)
testProtocol: radiometric filter-binding kinase assay
conditions: compound 0.1 µM
quantityName: residual activity
A bare number is not enough; add the unit after it.

Example results:
CCCCCc1ccc(/C=C/[C@H](O)[C@@H](CO)NC)cc1	83%
Cc1ccc(Sc2cnc(Nc3cccc(Br)n3)s2)cc1C(=O)N1CCN(C(=O)CN)CC1	46%
O=C(NCCCNc1nc(Nc2cccc(CN3CCOCC3)c2)ncc1C1CC1)C1CCC1	95%

Batch: residual activity for all items listed.
1. CC1=C(CO)C(=O)O[C@@H]([C@@H](C)[C@H]2CC[C@H]3[C@@H]4C[C@H]5O[C@]56[C@@H](O)C=CC(=O)[C@]6(C)C4CC[C@]23C)C1 (some centres undefined)
2. CCc1cncnc1N1CCN(Cc2nc3cc(C(F)(F)F)ccc3[nH]2)CC1
3. NC(=O)Nc1ccc2c(c1)/C(=C/c1cc(-c3cccnc3)c[nH]1)C(=O)N2

### Response
114%
87%
11%

Batch: residual activity for all items listed.
1. O=C(Nc1nc2cc(C(F)(F)F)cc(NC3CC3)n2n1)c1cccnc1
2. CN(C)C/C=C/C(=O)Nc1cccc(C(=O)Nc2ccc(Nc3nccc(-c4cccnc4)n3)cc2)c1
3. O=C(O)c1ccc(-c2c[nH]c3ncc(-c4ccccc4)cc23)cc1C1CCCC1

### Response
1: 92%; 2: 88%; 3: 94%

These measurements were taken from the kinase profiling compilation of Christmann-Franck et al. (2016).
